biological target: 5P+V; conditions: modification not given
READOUT LABEL: Kd (nM)

In [3]: df
Out[3]:
                    binder  unit  reported
0  NVSGWRLFKKISN [NLpep78]    nM      24.9

Data origin, for the record: patent US20140348747A1
